Hi there, I'd appreciate the recorded viability, T/C for every entry that follows.
# Test system: 422866-222-R5-J1-PDC spheroids with HUVEC/MSC, viability;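 note: spheroids exposed to compounds for seven days before reading; percent viability relative to DMSO vehicle control taken as 100%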
# assay-remarks: Anticancer human tumor 422866-222-R5-J1-PDC patient-derived pancreatic adenocarcinoma cell line growth inhibition [GQUAD]
# test-conditions: second compound 0.0316 µM; first compound 0.316 µM; stronger effect = lower value
# Text: DNA G-quadruplex Stabilizer Agents in Combinations in Complex Spheroids A high-throughput screen of multi-cell type tumor spheroids was designed to identify active combinations of DNA G-quadruplex stabilizer agents and targeted small molecules. […] Compounds. […] If the clinical Cmax for an agent had not been determined, the highest concentration tested was 10 microM. […]
Answers are plain numbers, in %.

The examples below pair each entry with its known result.
[[record]]
molecule = "CC(=O)O[C@H]1C(=O)[C@@]2(C)[C@H]([C@H](OC(=O)c3ccccc3)[C@]3(O)C[C@H](OC(=O)[C@H](O)[C@@H](NC(=O)c4ccccc4)c4ccccc4)C(C)=C1C3(C)C)[C@]1(OC(C)=O)CO[C@@H]1C[C@@H]2O + CN(C)c1ccc(Nc2c3ccc(NC(=O)CCN4CCCC4)cc3nc3cc(NC(=O)CCN4CCCC4)ccc23)cc1"
units_text = "%"
quantitative_readout = 63.9

[[record]]
molecule = "CC1COCCN1c1cc(C2(S(C)(=N)=O)CC2)nc(-c2ccnc3[nH]ccc23)n1 (stereo not given) + Cc1cnc(CNC(=O)c2c(=O)c3ccc(N4CCCN(C)CC4)nc3n3c2sc2ccccc23)cn1"
units_text = "%"
quantitative_readout = 95.1

[[record]]
molecule = "CC(C)n1c(=O)n(C)c2cnc3cc(F)c(-c4ccc(OCCCN5CCCCC5)nc4)cc3c21 + Cc1[nH]c2ccc(F)cc2c1-c1nc2c3cccnc3c3ncccc3c2[nH]1"
units_text = "%"
quantitative_readout = 94


For each of the molecules below, state viability, T/C.
1. CCc1c2c(nc3ccc(O)cc13)-c1cc3c(c(=O)n1C2)COC(=O)[C@]3(O)CC + Cc1cnc(CNC(=O)c2c(=O)c3ccc(N4CCCN(C)CC4)nc3n3c2sc2ccccc23)cn1
2. CC(C)(O)C1CCC(Nc2ccc3ncc(-c4cccc(C(F)(F)F)c4)n3n2)CC1 (stereo not given) + CN(C)c1ccc(Nc2c3ccc(NC(=O)CCN4CCCC4)cc3nc3cc(NC(=O)CCN4CCCC4)ccc23)cc1
3. COc1cccc2c1C(=O)c1c(O)c3c(c(O)c1C2=O)CC(O)(C(=O)CO)CC3OC1CC(N)C(O)C(C)O1 (stereo not given) + Cc1cnc(CNC(=O)c2c(=O)c3ccc(N4CCCN(C)CC4)nc3n3c2sc2ccccc23)cn1
4. O=C(NO)c1cnc(N2CCN(S(=O)(=O)c3ccc4ccccc4c3)CC2)nc1 + CN(C)c1ccc(Nc2c3ccc(NC(=O)CCN4CCCC4)cc3nc3cc(NC(=O)CCN4CCCC4)ccc23)cc1
5. Cn1ncnc1[C@H]1c2n[nH]c(=O)c3cc(F)cc(c23)N[C@@H]1c1ccc(F)cc1 + Cc1[nH]c2ccc(F)cc2c1-c1nc2c3cccnc3c3ncccc3c2[nH]1
6. C=CC(=O)N1CCN(c2nc(=O)n(-c3c(C)ccnc3C(C)C)c3nc(-c4c(O)cccc4F)c(F)cc23)C(C)C1 (stereo not given) + Cc1cnc(CNC(=O)c2c(=O)c3ccc(N4CCCN(C)CC4)nc3n3c2sc2ccccc23)cn1

Result:
1. 24.5
2. 92.9
3. 78.6
4. 79.9
5. 81.9
6. 28.1

Cc1[nH]c2ccccc2c1CCNCc1ccc(/C=C/C(=O)NO)cc1 + Cc1[nH]c2ccc(F)cc2c1-c1nc2c3cccnc3c3ncccc3c2[nH]1 has a reported viability, T/C of 102

Data provenance: PubChem BioAssay AID2060511
